test.summary: qHTS Assay for Lipid Storage Modulators (AID 1519)
condition.set: Drosophila S3 cells, BODIPY lipid droplet/cell ratio, laser cytometry; measured here: lipid channel max response; cells loaded with oleic acid
Inconclusive results are not listed.
attribute.measured: max response (%)
Numbers only, in %.

Worked set:
[[record]]
compound = "O=C(O)[C@H]1CN[C@H](C(=O)O)C1"
unit_tag = "%"
recorded_measurement = -9.55

[[record]]
compound = "N[C@@H](C(=O)O)c1ccc(P(=O)(O)O)cc1"
unit_tag = "%"
recorded_measurement = 7.2

[[record]]
compound = "O=C(O[C@@H]1Cc2c(O)cc(O)cc2OC1c1ccc(O)c(O)c1)c1cc(O)c(O)c(O)c1 (stereo partly specified)"
unit_tag = "%"
recorded_measurement = -4.33

[[record]]
compound = "C[C@@](N)(C(=O)O)c1ccc(P(=O)(O)O)cc1"
unit_tag = "%"
recorded_measurement = -4.21

[[record]]
compound = "N[C@H](C(=O)O)c1ccc(C(=O)O)c(O)c1"
unit_tag = "%"
recorded_measurement = -17.3

[[record]]
compound = "c1csc(CNc2ncnc3ccc(-c4ccc5c(c4)OCO5)cc23)c1"
unit_tag = "%"
recorded_measurement = 25.9

[[record]]
compound = "NC(N)=Nc1ccc(Cl)cc1"
unit_tag = "%"
recorded_measurement = -4.97

[[record]]
compound = "CC(C)=CCCC1(C)C=Cc2c(O)c3c(c(CC=C(C)C)c2O1)OC12C(=CCCC1C(C)(C)O[C@@]2(C/C=C(\\C)C(=O)O)C(=O)O)C3=O (stereo partly specified)"
unit_tag = "%"
recorded_measurement = 7.86


Hey, quick one: what's max response for each of these?
1. O=C(OC1Cc2c(O)cc(O)cc2OC1c1cc(O)c(O)c(O)c1-c1c(C2Oc3cc(O)cc(O)c3CC2OC(=O)c2cc(O)c(O)c(O)c2)cc(O)c(O)c1O)c1cc(O)c(O)c(O)c1 (stereo unspecified)
2. O=C(OC1Cc2c(O)cc(O)cc2OC1c1cc(O)c(O)c(O)c1-c1c(C2Oc3cc(O)cc(O)c3CC2O)cc(O)c(O)c1O)c1cc(O)c(O)c(O)c1 (stereo unspecified)

25.4
26.1

====

test.summary: HPAF-II Cancer Cell Toxicity qHTS against the NCATS CANVASS Library (AID 1347346); also: nearly all actives have a fitted effect of over 55% in size
condition.set: HPAF-II viability, CellTiter-Glo ATP luminescence, 72 h; series mostly up to 38.3 µM
Records with an inconclusive call do not appear. Active and inactive are the calls of the source. Calls come from the whole dose curve; as a rule, active = well fitted cell-killing curve with a large enough effect; inconclusive = small, poorly fitted or top-dose-only effect; inactive = flat fitted curve, though single readings scatter. Numbered stars: 1 amine (or outer) side, 2 acyl side, 3 side chain; on linkers, the order of the positions; unused ones are H or OH. Square brackets hold non-standard residues; d marks the D form. Peptide text beside a SMILES is read from it. X1 = CCCCCCCCCC(=O)[C@H](C(=O)[*:2])[C@@H]1CNC(=O)[C@@H](N[*:1])CS1
Hi there, use one of these labels in your reply, thanks! label 1 = active, label 0 = inactive

[[record]]
compound = "CN1CC[C@]2(c3cccc4c3N[C@@H]3N(C)CC[C@]43[C@@]34CCN(C)[C@@H]3Nc3ccccc34)c3ccccc3N[C@H]12"
cat = "label 1"

[[record]]
compound = "OCc1ccc2ocnc2c1"
cat = "label 0"

[[record]]
compound = "CCCCCCCCCC(=O)[C@@H]1C(=O)N[C@@H](CC(C)C)C(=O)N[C@H](C)C(=O)N2CCC[C@H]2C(=O)N[C@@H](C(C)C)C(=O)N[C@H]2CS[C@H]1CNC2=O (cyclo(L[dA]PV[X1]))"
cat = "label 0"

[[record]]
compound = "CC(C)(Br)[C@@H](Cl)C[C@H](Br)[C@](C)(Cl)/C=C/Br"
cat = "label 1"

[[record]]
compound = "C=C(C)CC[C@H](Cc1c(O)cc(O)c2c1O[C@H](c1ccc(O)cc1O)CC2=O)C(=C)C"
cat = "label 0"


Hey, what did the test say about `CC1=CC[C@@]2(C[C@@H]1O)[C@@H](C(=O)O)CC[C@H]2C(C)C` ?
label 0

Hey, what did the test say about CC(O)/C=C/C1(O)C(C)(C)CC(O)CC1(C)O (stereo not drawn) ?
label 0

Hey, what did the test say about C=C1[C@H]2CC[C@@]3(C=CC(=O)[C@@](C)(CCC(=O)Nc4c(O)ccc(C(=O)O)c4O)C3C2)[C@H]1O (stereo partly drawn) ?
label 0

Hey, what did the test say about `C[C@@H]1C(=O)[C@]23CC[C@H]1C[C@]21O[C@H]2C(C)(C)C=CC(=O)[C@@]23COC1=O` ?
label 0

Hey, what did the test say about `CCC1=C2CCCN3C(=O)O[C@H]([C@H]1OC(C)=O)[C@H]23` ?
label 0
